# procedureSummary: qHTS assay to identify small molecule antagonists of the androgen receptor (AR) signaling pathway using the MDA cell line in the presence of 0.5 nM R1881 - cell viability counter screen (AID 1259242); further: nearly all actives have a fitted effect of over 45% in size
# appliedConditions: MDA-kb2 viability, CellTiter-Fluor protease fluorescence, 16 h; series mostly up to 92.4 µM
# From the text: U.S. Tox21 Program National Center for Advancing Translational Sciences [NCATS] NIH Chemical Genomics Center [NCGC] U.S. Environmental Protection Agency [EPA] National Institutes of Environmental Health Sciences [NIEHS] National Toxicology Program [NTP] U.S. Food and Drug Administration [FDA] Tox21 Assay Overview: Androgen receptor (AR) is an important member of the nuclear receptor family. Its signaling plays a critical role in AR-dependent prostate cancer and other androgen related diseases. […]
Records with an inconclusive call do not appear. The source made the active and inactive calls. The call rests on the fitted dose curve; in most records, active means well fitted cell-killing curve with a large enough effect in the repeat runs; inconclusive means weak or mixed curves, or effect the other way; inactive means flat fitted curve, though single readings scatter.
reportedProperty: outcome

C[N+]1([O-])CCOCC1 | inactive
C=CS(=O)(=O)O | inactive
O=C(O)CCc1ccccc1 | inactive

----------
# procedureSummary: qHTS assay to identify small molecule antagonists of the peroxisome proliferator-activated receptor gamma (PPARg) signaling pathway - cell viability counter screen (AID 743194); further: nearly all actives have a fitted effect of over 55% in size
# appliedConditions: PPARg-bla HEK293H viability, CellTiter-Glo luminescence, 17 h, co-treated with 50 nM rosiglitazone; series mostly up to 62.6 µM
Records with an inconclusive call do not appear. The source made the active and inactive calls. The call rests on the fitted dose curve; in most records, active means well fitted cell-killing curve with a large enough effect in the repeat runs; inconclusive means weak or mixed curves, or effect the other way; inactive means no such curve, though single readings can be large or run the other way.
// one of Yes for active, No for inactive, no free text

Before answering, review these 5 worked examples.
Cc1cccc(O)c1C | No
OCCOCCN1CCN(C(c2ccccc2)c2ccc(Cl)cc2)CC1 (centres undefined) | No
Nc1nc2ccccc2[nH]1 | No
c1ccc2c(c1)CCCC2C1=NCCN1 (centres undefined) | No
CCCCOCCOC(=O)c1ccccc1C(=O)OCCOCCCC | No

Query block: Returns: the outcome recorded for `c1ccc2n[nH]nc2c1` in this assay.
Result block: No

Query block: Then `CCOc1ccc2c(c1)C(C)=CC(C)(C)N2` ?
Result block: No

Query block: Then `CCC(CO)(CO)COCC(CC)(CO)CO` ?
Result block: No

Query block: Then `C=CC(=O)OCCCCCCCC` ?
Result block: No

----------
# procedureSummary: qHTS assay to identify small molecule agonists of the estrogen receptor beta (ER-beta) signaling pathway - cell viability counter screen (AID 1259380); further: nearly all actives have a fitted effect of over 30% in size
# appliedConditions: ER-beta-bla HEK293T viability, CellTiter-Glo luminescence, 16 h; series mostly up to 92.4 µM
Records with an inconclusive call do not appear. Calls of active or inactive are those of the source. The call rests on the fitted dose curve; in most records, active means well fitted cell-killing curve with a large enough effect in the repeat runs; inconclusive means weak or mixed curves, or effect the other way; inactive means flat fitted curve, though single readings scatter. Starred links: 1 amine or outer side, 2 acyl side, 3 side chain; linkers in the order of their positions; H or OH if unused. Positions of bridges follow the written chain, without caps; N, C: chain ends. Non-standard residues stand in square brackets, D forms with d. Residues, ends and D or L forms follow the SMILES beside them. Chains are numbered I, II in the order given. Actinocin(9to1) = Cc1c2oc3c(C)ccc(C(=O)[*:1])c3nc-2c(C(=O)[*:2])c(N)c1=O; NMeV = CN[C@H](C(=O)O)C(C)C; Sar = CNCC(=O)O
// one of active, inactive, no free text

CC(C)(C)NCC(O)c1cc(O)cc(O)c1 (stereo not given) | inactive

Query block: Returns: the outcome recorded for `CN1C(=O)c2ccc([N+](=O)[O-])cc2C1=O` in this assay.
Result block: inactive

Query block: Then Cc1c2oc3c(C)ccc(C(=O)N[C@@H]4C(=O)N[C@H](C(C)C)C(=O)N5CCC[C@H]5C(=O)N(C)CC(=O)N(C)[C@@H](C(C)C)C(=O)O[C@@H]4C)c3nc-2c(C(=O)N[C@@H]2C(=O)N[C@H](C(C)C)C(=O)N3CCC[C@H]3C(=O)N(C)CC(=O)N(C)[C@@H](C(C)C)C(=O)O[C@@H]2C)c(N)c1=O (I: T[dV]P[Sar][NMeV] / II: T[dV]P[Sar][NMeV]; ester I:1-I:C, II:1-II:C; linker I:N-II:N via Actinocin(9to1)) ?
Result block: inactive

Query block: Then `Nc1nc2ccccc2[nH]1` ?
Result block: inactive

Query block: Then `CCC[C@H](N[C@@H](C)C(=O)N1[C@H](C(=O)O)C[C@@H]2CCCC[C@@H]21)C(=O)OCC` ?
Result block: inactive

Query block: Then `CCCCN(CCO)CCCC` ?
Result block: inactive

Query block: Then `CCCCCCCCCCCC[N+](C)(C)C` ?
Result block: active

Query block: Then CC1COC(=O)O1 (stereo not given) ?
Result block: inactive

Query block: Then CC(C)(C)NCC(O)COc1ccccc1OCC1CCCO1 (stereo not given) ?
Result block: inactive

Query block: Then `CC(=O)CC(=O)Nc1ccc2[nH]c(=O)[nH]c2c1` ?
Result block: inactive
